Entry source: patent US20230242651A1

ASSAYED TARGET: T1, human interleukin-23 receptor (IL23R) (human, UniProt Q5VWK5 24-355, limits assumed)
T1 construct: also called human IL23R
T1 sequence (looked up): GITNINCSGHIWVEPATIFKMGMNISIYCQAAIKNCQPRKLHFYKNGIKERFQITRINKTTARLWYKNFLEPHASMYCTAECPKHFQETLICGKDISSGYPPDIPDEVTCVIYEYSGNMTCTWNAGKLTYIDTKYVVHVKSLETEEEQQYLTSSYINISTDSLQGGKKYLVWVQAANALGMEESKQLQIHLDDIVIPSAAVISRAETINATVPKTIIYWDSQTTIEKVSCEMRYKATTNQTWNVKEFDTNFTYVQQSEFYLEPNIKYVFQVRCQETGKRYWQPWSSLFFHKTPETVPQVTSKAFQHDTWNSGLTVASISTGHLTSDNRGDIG
ASSAY METHOD TEXT: SPR, scFv
koff of 0.0003 s⁻¹ or higher: criterion met. Under 0.0003 s⁻¹: criterion not met.

Past entries and their recorded results:
Vκ3/VH3 consensus λ-capped, human IL23R specific scFv (scFv, scFv VL-linker-VH, made in E. coli; also called Vκ3VH3 capped) scFv: DIVLTQSPATLSLSPGERATLSCQASENIYSFLAWYQQKPGQAPRLLIYSASKLAAGVPARFSGSGSGTDFTLTISSLEPEDFAVYYCQQTNRYSNPDIYNVFGGGTKLTVLGGGGGSGGGGSGGGGSGGGGSEVQLVESGGGLVQPGGSLRLSCAASGIDFNSNYYMCWVRQAPGKGLEWVSCIYVGSHVNTYYANWAKGRFTISRDNSKNTLYLQMNSLRAEDTAVYYCATSGSSVLYFKFWGQGTLVTVSS    criterion not met
Vκ3/VH1A consensus (uncapped), human IL23R specific scFv (scFv, scFv VL-linker-VH, made in E. coli; Vκ framework IV (uncapped, full consensus); also called Vκ3VH1A uncapped) scFv: DIVLTQSPATLSLSPGERATLSCQASENIYSFLAWYQQKPGQAPRLLIYSASKLAAGVPARFSGSGSGTDFTLTISSLEPEDFAVYYCQQTNRYSNPDIYNVFGQGTKVEIKRGGGGSGGGGSGGGGSGGGGSQVQLVQSGAEVKKPGSSVKVSCKASGIDFNSNYYMCWVRQAPGQGLEWMGCIYVGSHVNTYYANWAKGRVTITADESTSTAYMELSSLRSEDTAVYYCATSGSSVLYFKFWGQGTLVTVSS    criterion met
Vκ2/VH1A consensus λ-capped, human IL23R specific scFv (scFv, scFv VL-linker-VH, made in E. coli; also called Vκ2VH1A capped) scFv: DIVMTQSPLSLPVTPGEPASISCQASENIYSFLAWYLQKPGQSPQLLIYSASKLAAGVPDRFSGSGSGTDFTLKISRVEAEDVGVYYCQQTNRYSNPDIYNVFGGGTKLTVLGGGGGSGGGGSGGGGSGGGGSQVQLVQSGAEVKKPGSSVKVSCKASGIDFNSNYYMCWVRQAPGQGLEWMGCIYVGSHVNTYYANWAKGRVTITADESTSTAYMELSSLRSEDTAVYYCATSGSSVLYFKFWGQGTLVTVSS    criterion not met
Vκ2/VH1A consensus (uncapped), human IL23R specific scFv (scFv, scFv VL-linker-VH, made in E. coli; Vκ framework IV (uncapped, full consensus); also called Vκ2VH1A uncapped) scFv: DIVMTQSPLSLPVTPGEPASISCQASENIYSFLAWYLQKPGQSPQLLIYSASKLAAGVPDRFSGSGSGTDFTLKISRVEAEDVGVYYCQQTNRYSNPDIYNVFGQGTKVEIKRGGGGSGGGGSGGGGSGGGGSQVQLVQSGAEVKKPGSSVKVSCKASGIDFNSNYYMCWVRQAPGQGLEWMGCIYVGSHVNTYYANWAKGRVTITADESTSTAYMELSSLRSEDTAVYYCATSGSSVLYFKFWGQGTLVTVSS    criterion not met

Prompt line: Determine whether this binder has koff no lower than 0.0003 s⁻¹: Vκ2/VH6 consensus (uncapped), human IL23R specific scFv (scFv, scFv VL-linker-VH, made in E. coli; Vκ framework IV (uncapped, full consensus); also called Vκ2VH6 uncapped) scFv: DIVMTQSPLSLPVTPGEPASISCQASENIYSFLAWYLQKPGQSPQLLIYSASKLAAGVPDRFSGSGSGTDFTLKISRVEAEDVGVYYCQQTNRYSNPDIYNVFGQGTKVEIKRGGGGSGGGGSGGGGSGGGGSQVQLQQSGPGLVKPSQTLSLTCAISGIDFNSNYYMCWIRQSPGRGLEWLGCIYVGSHVNTYYANWAKGRITINPDTSKNQFSLQLNSVTPEDTAVYYCATSGSSVLYFKFWGQGTLVTVSS
Response line: criterion not met
